SYSTEM NAME: T1, soluble Homo sapiens CD131 comprising a C-terminal 6xHis tag (human, UniProt P32927 17-438)
T1 construct: truncated after Ser438, C-terminal 6xHis; also called shCD131; shβc
T1 sequence: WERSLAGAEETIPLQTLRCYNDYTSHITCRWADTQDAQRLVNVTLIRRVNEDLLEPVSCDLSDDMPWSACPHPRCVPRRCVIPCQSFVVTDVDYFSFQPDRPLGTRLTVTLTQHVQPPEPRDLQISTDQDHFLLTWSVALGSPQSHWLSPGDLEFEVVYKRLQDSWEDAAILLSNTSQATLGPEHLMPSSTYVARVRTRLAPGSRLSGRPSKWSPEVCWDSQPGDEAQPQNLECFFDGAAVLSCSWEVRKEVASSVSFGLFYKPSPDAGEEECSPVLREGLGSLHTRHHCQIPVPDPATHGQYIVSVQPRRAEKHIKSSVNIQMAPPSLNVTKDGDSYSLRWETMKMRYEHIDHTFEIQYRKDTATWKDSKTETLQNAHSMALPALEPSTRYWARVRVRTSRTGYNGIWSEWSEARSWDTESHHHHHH
PROTOCOL TEXT: SPR, Fab over captured shCD131
List of pKd values.
In simple prose, pKd is minus the logarithm base ten of a concentration in moles per litre.

A selection of reference data follows.
BINDER	VAL
9A2-VR24.30 Fab (Fab, V domains shown, recombinant Fab) VH: EVQLLESGGGLVQPGGSLRLSCAASGFTFPWYRVHWVRQAPGKGLEWVSSIRSSGGFPYYNRRVKGRFTISRDNSKNTLYLQMNSLRAEDTAVYYCARFYDSFFDIWGQGTMVTVSS VL: DIQMTQSPSSVSASVGDRVTITCRASQGISSWLAWYQQKPGKAPKLLIYAASSLQSGVPSRFSGSGSGTDFTLTISSLQPEDFATYYCQQANSFPITFGQGTRLEIKR	9.91
9A2-VR24.10 Fab (Fab, V domains shown, recombinant Fab) VH: EVQLLESGGGLVQPGGSLRLSCAASGFTFPWYRVHWVRQAPGKGLEWVSSIHTGSQWTYYADSVKGRFTISRDNSKNTLYLQMNSLRAEDTAVYYCARFYDSFFDIWGQGTMVTVSS VL: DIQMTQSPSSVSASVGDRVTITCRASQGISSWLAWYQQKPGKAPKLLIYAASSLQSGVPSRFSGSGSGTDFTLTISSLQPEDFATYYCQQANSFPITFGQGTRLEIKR	9.43
9A2-VR39.17 Fab (Fab, V domains shown, recombinant Fab) VH: EVQLLESGGGLVQPGGSLRLSCAASGFTFPFYHKVWVRQAPGKGLEWVSSINGRGRVTYYADSVKGRFTISRDNSKNTLYLQMNSLRAEDTAVYYCARFYDSFFDIWGQGTMVTVSS VL: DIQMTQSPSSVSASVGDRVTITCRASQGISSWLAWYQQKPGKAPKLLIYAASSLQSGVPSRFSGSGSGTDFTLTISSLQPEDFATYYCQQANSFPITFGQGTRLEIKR	9.70
9A2-VR24.81 Fab (Fab, V domains shown, recombinant Fab) VH: EVQLLESGGGLVQPGGSLRLSCAASGFTFPWYRVHWVRQAPGKGLEWVSSIHTHRNYTYYADSVKGRFTISRDNSKNTLYLQMNSLRAEDTAVYYCARFYDSFFDIWGQGTMVTVSS VL: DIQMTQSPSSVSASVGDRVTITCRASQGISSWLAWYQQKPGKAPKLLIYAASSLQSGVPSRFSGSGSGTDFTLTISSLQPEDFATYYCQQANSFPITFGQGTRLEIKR	9.76

Pending binder:
Q: Fill blank: measured pKd of the binder 9A2-VR24.97 Fab (Fab, V domains shown, recombinant Fab) VH: EVQLLESGGGLVQPGGSLRLSCAASGFTFPWYRVHWVRQAPGKGLEWVSSIRSSGGFPYYSLSVKGRFTISRDNSKNTLYLQMNSLRAEDTAVYYCARFYDSFFDIWGQGTMVTVSS VL: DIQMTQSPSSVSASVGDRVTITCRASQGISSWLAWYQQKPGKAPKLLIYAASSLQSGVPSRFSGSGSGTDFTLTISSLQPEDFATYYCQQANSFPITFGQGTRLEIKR is ____.
A: 9.80

Source of measurements: patent US20190062438A1
